Listed next: entries and their corresponding IC50.
- Tested target: PDGFR-α (Homo sapiens, UniProt P16234)
- Sequence (P16234 24-1089, species assumed): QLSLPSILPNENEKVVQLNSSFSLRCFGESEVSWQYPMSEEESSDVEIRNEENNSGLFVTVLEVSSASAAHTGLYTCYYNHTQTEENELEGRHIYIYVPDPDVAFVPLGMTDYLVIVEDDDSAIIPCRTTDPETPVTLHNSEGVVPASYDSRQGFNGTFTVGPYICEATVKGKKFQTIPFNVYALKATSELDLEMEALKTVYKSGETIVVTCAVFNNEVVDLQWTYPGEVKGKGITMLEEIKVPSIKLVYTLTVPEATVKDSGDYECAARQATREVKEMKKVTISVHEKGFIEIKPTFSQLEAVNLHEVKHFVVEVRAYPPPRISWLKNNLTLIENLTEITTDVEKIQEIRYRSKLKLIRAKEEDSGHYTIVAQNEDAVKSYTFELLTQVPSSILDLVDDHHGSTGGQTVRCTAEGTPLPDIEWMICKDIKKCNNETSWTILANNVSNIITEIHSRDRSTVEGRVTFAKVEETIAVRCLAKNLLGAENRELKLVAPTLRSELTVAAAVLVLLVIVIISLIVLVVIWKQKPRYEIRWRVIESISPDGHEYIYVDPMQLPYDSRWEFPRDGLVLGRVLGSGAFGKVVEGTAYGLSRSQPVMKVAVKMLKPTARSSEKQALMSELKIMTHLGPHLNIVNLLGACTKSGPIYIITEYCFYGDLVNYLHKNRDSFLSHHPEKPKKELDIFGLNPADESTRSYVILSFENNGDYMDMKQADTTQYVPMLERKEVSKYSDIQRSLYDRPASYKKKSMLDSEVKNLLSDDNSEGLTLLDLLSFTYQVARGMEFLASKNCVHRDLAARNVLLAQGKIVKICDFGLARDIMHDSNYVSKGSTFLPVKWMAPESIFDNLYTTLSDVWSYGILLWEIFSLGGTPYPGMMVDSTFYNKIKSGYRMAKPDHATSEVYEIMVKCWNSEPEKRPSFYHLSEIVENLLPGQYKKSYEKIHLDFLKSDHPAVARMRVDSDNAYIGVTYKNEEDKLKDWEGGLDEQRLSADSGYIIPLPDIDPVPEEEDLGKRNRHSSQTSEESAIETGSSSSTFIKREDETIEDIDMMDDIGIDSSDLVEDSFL
- Assay name: Kinase inhibition assay (ELISA)
- Type: biochemical
- Condition set: 1 µM ATP
- Description: To determine the interaction of our compounds with tyrosine kinases: PDGFR-α, cKIT, PDGFR-β, VEGFR-2 we used enzyme-linked immunosorbent assay (ELISA). Determination plates preparation: The plates are processed by neutravidine for 2 h at 30°C. […] Kinase activity determination: The reaction mixture was transferred to determination plate. […] After washing, antibody binding was detected by tetramethylbenzidine (TMB) color development (Sigma). […]
Measurement type: IC50

• OCCN1CCC(c2ccnc(Nc3ncc(-c4ccccc4F)s3)c2)CC1 = < 10 nM
• OCCN1CCC(c2ccnc(Nc3ncc(-c4cccc(F)c4)s3)c2)CC1 = < 10 nM
• OCC(O)CN1CCC(c2ccnc(Nc3ncc(-c4ccc(F)cc4)s3)c2)CC1 (stereo not drawn) = < 10 nM
• OCCN1CCC(CO)(c2cccc(Nc3ncc(-c4ccccc4)s3)n2)CC1 = > 100 nM
• Cc1cc(Nc2ncc(-c3ccccc3)s2)nc(C2CCN(CCO)CC2)n1 = > 10 nM
• CC(=O)N1CCOCC(Cc2ccnc(Nc3ncc(-c4ccc(F)cc4)s3)c2)C1 (stereo not drawn) = < 10 nM
• CN(C)CC1(c2cccc(Nc3ncc(-c4ccccc4)s3)n2)CCN(CCO)CC1 = > 1000 nM
• c1ccc(-c2cnc(Nc3cc(CC4CCNC4)ccn3)s2)cc1 (stereo not drawn) = < 10 nM
• OCCN1CCC(c2cccc(Nc3ncc(-c4ccnc(Cl)c4)s3)n2)CC1 = < 10 nM

----------
- Test system: A375
- Assay name: MTT proliferation / cytotoxicity assay
- Format: cell-based, human
- Condition set: Homo sapiens, A-375, 72 h
Measurement type: IC50

* OCCN1CCC(c2cc(Nc3ncc(-c4ccccc4)s3)ccn2)CC1 | > 10 µM
* CC(=O)N1CCOCC(Cc2ccnc(Nc3ncc(-c4ccc(F)cc4)s3)c2)C1 (stereo not drawn) | > 1 µM
* Fc1ccc(-c2cnc(Nc3cc(CC4CNCCOC4)ccn3)s2)cc1 (stereo not drawn) | > 1 µM
* O=C(Nc1ccccc1Cl)c1cnc(Nc2cc(C3CCN(CCO)CC3)ccn2)s1 | > 1 µM
* c1ccc(-c2cnc(Nc3cccc(CC4CC5CCC(C4)N5)n3)s2)cc1 (stereo not drawn) | ≤ 1 µM
* OCCN1CCC(c2ccnc(Nc3ncc(-c4cc(F)cc(F)c4)s3)c2)CC1 | > 1 µM
* CCCc1cnc(Nc2cccc(C3CCN(C(=O)C(C)(C)N)CC3)n2)s1 | > 1 µM
* Fc1ccc(-c2cnc(Nc3cccc(CC4CNCCOC4)n3)s2)cc1 (stereo not drawn) | ≤ 1 µM
* Fc1ccc(-c2cnc(Nc3cc(CC4CCNCC4)ccn3)s2)cc1 | > 1 µM

----------
- System: U251
- Assay name: MTT proliferation / cytotoxicity assay
- Type: cell-based, human
- Condition set: Homo sapiens, U-251, 72 h, glioblastoma cell line
Measurement type: IC50

- Fc1ccc(-c2cnc(Nc3cc(CC4CNCCOC4)ccn3)s2)cc1 (stereo not shown): > 10 µM
- OCCN1CCC(c2ccnc(Nc3ncc(-c4ccc(F)c(F)c4)s3)c2)CC1: > 1 µM
- Fc1ccc(-c2cnc(Nc3cccc(CC4CNCCOC4)n3)s2)cc1 (stereo not shown): > 1 µM
- c1ccc(-c2cnc(Nc3cc(C4CCCNC4)ccn3)s2)cc1 (stereo not shown): > 10 µM
- OCCN1CCC(c2ccnc(Nc3ncc(-c4cccc(F)c4)s3)c2)CC1: > 1 µM
- CC(=O)N1CCOCC(Cc2ccnc(Nc3ncc(-c4ccc(F)cc4)s3)c2)C1 (stereo not shown): > 10 µM
- CN1CCOCC(Cc2ccnc(Nc3ncc(-c4ccc(F)cc4)s3)c2)C1 (stereo not shown): > 10 µM
- CN1CCCC(Cc2cccc(Nc3ncc(-c4ccc(F)cc4)s3)n2)CC1 (stereo not shown): > 1 µM
- OCCN1CCC(Cc2ccnc(Nc3ncc(-c4ccc(F)cc4)s3)c2)CC1: > 10 µM
- OCCN1CCC(c2ccnc(Nc3ncc(CC(F)(F)F)s3)c2)CC1: > 10 µM
- Fc1ccc(-c2cnc(Nc3cccc(CC4CCCNCC4)n3)s2)cc1 (stereo not shown): > 1 µM
- CC(=O)N1CCC(Cc2ccnc(Nc3ncc(-c4ccc(F)cc4)s3)c2)CC1: > 10 µM
- OCCN1CCOCC(Cc2ccnc(Nc3ncc(-c4ccc(F)cc4)s3)c2)C1 (stereo not shown): > 10 µM
- OCCN1CCC(c2ccnc(Nc3ncc(-c4ccccc4F)s3)c2)CC1: > 1 µM
- c1ccc(-c2cnc(Nc3cc(CCC4CCCN4)ccn3)s2)cc1 (stereo not shown): > 10 µM
- c1ccc(-c2cnc(Nc3cccc(CC4CC5CCC(C4)N5)n3)s2)cc1 (stereo not shown): > 1 µM
- CN1CCC(Cc2ccnc(Nc3ncc(-c4ccc(F)cc4)s3)c2)CC1: > 10 µM
- Cc1cc(Nc2ncc(-c3ccccc3)s2)nc(C2CCN(CCO)CC2)n1: > 1 µM
- Fc1ccc(-c2cnc(Nc3cc(CC4CCNCC4)ccn3)s2)cc1: > 1 µM

----------
Listed next: entries and their corresponding IC50.
- Test system: A2780
- Assay name: MTT proliferation / cytotoxicity assay
- Type: cell-based, human
- Condition set: Homo sapiens, A2780, 72 h
Measurement type: IC50

- Fc1ccc(-c2cnc(Nc3cc(CC4CNCCOC4)ccn3)s2)cc1 (stereo not drawn): > 1 µM
- CN1CCCC(Cc2cccc(Nc3ncc(-c4ccc(F)cc4)s3)n2)CC1 (stereo not drawn): > 1 µM
- OCCN1CCC(c2ccnc(Nc3ncc(-c4cccc(F)c4)s3)c2)CC1: > 1 µM
- c1ccc(-c2cnc(Nc3cccc(CC4CC5CCC(C4)N5)n3)s2)cc1 (stereo not drawn): ≤ 1 µM
- CC(C)(C)Cc1cnc(Nc2cccc(C3CCN(C(=O)C(C)(C)N)CC3)n2)s1: ≤ 1 µM
- OCCN1CCOCC(Cc2ccnc(Nc3ncc(-c4ccc(F)cc4)s3)c2)C1 (stereo not drawn): > 1 µM
- Fc1ccc(-c2cnc(Nc3cccc(CC4CNCCOC4)n3)s2)cc1 (stereo not drawn): < 1 µM
- Fc1ccc(-c2cnc(Nc3cc(CC4CCCC5CNCC54)ccn3)s2)cc1 (stereo not drawn): < 1 µM
- OCCN1CCC(c2cc(Nc3ncc(-c4ccccc4)s3)ccn2)CC1: > 10 µM

----------
- Tested on: U251
- Assay name: MTT proliferation / cytotoxicity assay
- Format: cell-based, human
- Condition set: Homo sapiens, U-251, 72 h, glioblastoma cell line
Measurement type: IC50

* Cc1nc(Nc2ncc(-c3ccccc3)s2)cc(C2CCN(CCO)CC2)n1 | > 10 µM
* CC(=O)N1CCCC(Cc2cccc(Nc3ncc(-c4ccc(F)cc4)s3)n2)CC1 (stereo not drawn) | > 1 µM
* OCCN1CCC(c2ccnc(Nc3ncc(-c4ccc(F)cc4)s3)c2)CC1 | > 1 µM
* OCCN1CCC(c2cc(Nc3ncc(-c4ccccc4)s3)ccn2)CC1 | > 10 µM
* CS(=O)(=O)N1CCC(Cc2ccnc(Nc3ncc(-c4ccc(F)cc4)s3)c2)CC1 | > 10 µM
* OCCN1CCC(c2ccnc(Nc3ncc(-c4cc(F)cc(F)c4)s3)c2)CC1 | > 10 µM
* c1ccc(-c2cnc(Nc3cc(CC4CCCNCC4)ccn3)s2)cc1 (stereo not drawn) | > 10 µM
* Fc1ccc(-c2cnc(Nc3cc(CC4CNCCNC4)ccn3)s2)cc1 | > 10 µM
* Cc1nc(Nc2ncc(-c3ccccc3)s2)cc(C2CCN(C(=O)C(C)(C)N)CC2)n1 | > 10 µM

----------
Listed next: entries and their corresponding IC50.
- Tested target: PDGFR-α (Homo sapiens)
- Assay name: Kinase inhibition assay (ELISA)
- Assay type: biochemical
- Condition set: 1 µM ATP
Measurement type: IC50

* CC(=O)N1CCCC(Cc2cccc(Nc3ncc(-c4ccc(F)cc4)s3)n2)CC1 (stereo not drawn) | > 10 nM
* c1ccc(-c2cnc(Nc3cccc(CC4CC5CCC(C4)N5)n3)s2)cc1 (stereo not drawn) | > 10 nM
* OCCN1CCC(c2ccnc(Nc3ncc(-c4ccc(F)cc4)s3)c2)CC1 | < 10 nM
* OCCN1CCC(c2ccnc(Nc3ncc(-c4ccc(F)c(F)c4)s3)c2)CC1 | < 10 nM
* CC(C)(C)OC(=O)N1CCC(c2cccc(Nc3ncc(C#CC4CC4)s3)n2)CC1 | > 10000 nM
* OCCN1CCC(c2ccnc(Nc3ncc(/C=C/c4ccccc4)s3)c2)CC1 | > 10 nM
* CC(C)(C)Cc1cnc(Nc2cccc(C3CCN(C(=O)C(C)(C)N)CC3)n2)s1 | > 100 nM
* Fc1ccc(-c2cnc(Nc3cc(CC4CCCC5CNCC54)ccn3)s2)cc1 (stereo not drawn) | < 10 nM
* OCCN1CCC(c2ccnc(Nc3ncc(CC(F)(F)F)s3)c2)CC1 | > 100 nM

----------
Listed next: entries and their corresponding IC50.
- Tested target: UniProt P10721
- Sequence (P10721 26-976): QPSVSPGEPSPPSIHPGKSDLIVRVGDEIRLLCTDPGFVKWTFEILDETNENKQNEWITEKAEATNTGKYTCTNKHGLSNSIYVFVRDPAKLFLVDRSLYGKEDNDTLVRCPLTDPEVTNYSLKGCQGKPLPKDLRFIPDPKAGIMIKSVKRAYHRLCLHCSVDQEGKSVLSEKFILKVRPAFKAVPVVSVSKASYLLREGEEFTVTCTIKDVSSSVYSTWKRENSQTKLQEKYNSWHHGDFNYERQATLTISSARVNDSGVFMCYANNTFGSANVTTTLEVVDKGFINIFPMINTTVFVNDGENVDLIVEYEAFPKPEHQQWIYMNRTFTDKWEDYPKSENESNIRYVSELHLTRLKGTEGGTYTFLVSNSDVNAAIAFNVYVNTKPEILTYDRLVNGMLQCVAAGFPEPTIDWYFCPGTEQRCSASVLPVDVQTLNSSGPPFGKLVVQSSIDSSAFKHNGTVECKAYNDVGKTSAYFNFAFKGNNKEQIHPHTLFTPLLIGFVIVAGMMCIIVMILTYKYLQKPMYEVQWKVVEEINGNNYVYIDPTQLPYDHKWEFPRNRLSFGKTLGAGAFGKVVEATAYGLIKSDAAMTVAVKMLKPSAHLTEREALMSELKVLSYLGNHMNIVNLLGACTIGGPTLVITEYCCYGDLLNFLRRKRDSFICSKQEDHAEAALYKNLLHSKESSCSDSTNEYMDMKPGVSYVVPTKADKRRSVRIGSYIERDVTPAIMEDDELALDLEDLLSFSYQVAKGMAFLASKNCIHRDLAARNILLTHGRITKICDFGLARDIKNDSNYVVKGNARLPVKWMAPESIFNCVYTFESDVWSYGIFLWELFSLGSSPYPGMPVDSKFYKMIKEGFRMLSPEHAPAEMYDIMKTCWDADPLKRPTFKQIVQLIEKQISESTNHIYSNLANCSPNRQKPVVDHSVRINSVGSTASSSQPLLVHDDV
- Assay name: Kinase inhibition assay (ELISA)
- Type: biochemical
- Condition set: 60 µM ATP
Measurement type: IC50

- c1ccc(-c2cnc(Nc3cccc(CC4CC5CCC(C4)N5)n3)s2)cc1 (stereo not shown) [Example 022]: > 10 nM
- OCCN1CCC(Cc2ccnc(Nc3ncc(-c4ccc(F)cc4)s3)c2)CC1 [Example 003]: > 10 nM
- CCCc1cnc(Nc2cccc(C3CCN(C(=O)C(C)(C)N)CC3)n2)s1 [Example 041]: > 100 nM
- O=C(Nc1ccccc1Cl)c1cnc(Nc2cc(C3CCN(CCO)CC3)ccn2)s1 [Example 044]: > 10 nM
- OCCN1CCC(c2cc(Nc3ncc(-c4ccccc4)s3)ccn2)CC1 [Example 033]: > 100 nM
- Cc1cc(Nc2ncc(-c3ccccc3)s2)nc(C2CCN(CCO)CC2)n1 [Example 029]: < 10 nM
- Cc1nc(Nc2ncc(-c3ccccc3)s2)cc(C2CCN(CCO)CC2)n1 [Example 032]: > 10 nM
